System: gabapentin binding site
experiment.summary: Gabapentin binding assay (displacement of gabapentin from its binding site)
measured.quantity: % Inhibition Gabapentin, 10 μmole (%)
Please respond with the number in % and leave the unit unwritten.

Request: For CN(C)CC1CCCC(c2cccc(O)c2)C1(O)c1ccc(F)cc1 (centres unmarked) [Example 81] , what is its reported % Inhibition Gabapentin, 10 μmole?
Response: 48

Request: For COc1cccc(C2CCCC(CN(C)C)C2(O)c2ccc(Cl)cc2)c1 (centres unmarked) [Example 45] , what is its reported % Inhibition Gabapentin, 10 μmole?
Response: 58

Request: For CN(C)CC1CCCC(c2cccc(O)c2)C1(O)c1ccccc1 (centres unmarked) [Example 82] , what is its reported % Inhibition Gabapentin, 10 μmole?
Response: 55

Request: For COc1cccc(C2CCCC(CN(C)C)C2(O)c2cccc(Cl)c2)c1 (centres unmarked) [Example 75] , what is its reported % Inhibition Gabapentin, 10 μmole?
Response: 54

Let us move to another entry and its % Inhibition Gabapentin, 10 μmole.
Request: For COc1cccc(C2CCCC(CN(C)C)C2(O)c2ccc(C)cc2)c1 (centres unmarked) [Example 76] , what is its reported % Inhibition Gabapentin, 10 μmole?
Response: 53
